# TEST DETAILS: yeast display, Sf9 membrane polyspecificity reagent, FACS + sequencing; frameworks hold sequencing errors
PROPERTY NAME: polyreactivity (PSR sort gate)

The examples below pair each entry with its known result.
QVQLVESGGGLVQAGGSLRLSSAASGYIFDRYTMGWYRQAPGKERELVASISRRGGSTYYADSVKGRFTISRDNAKNTVYLQMNSLKPEDTAVYYCAAPNALGYLFQGFDYWGLGTQVTVSS ... high polyreactivity
QVQLVESGGGLVQAVGSLRLSCAASGTFARYAMGWYRQGPGKERELVAAISSRGGSTYYADSVKGRFTISRDNAENTVYLQMNSLKPEDTAVYYCAAAHQYYPEYYYWGQGTQVTVSS ... high polyreactivity
QVQLVESGGGLVQAGGSLRLSCAASGSIFEVNAMGWYTQAPGKERELVATITYSGGSTYYADSVKGRFTISRDNAKNTVYLQMNSLKPEDTAVYYCATDYVDWELYIYDYWGQGTQVTVSS ... low polyreactivity
QVQLVESGGGLVQAGGSLRLSCAASGLTFSAYTMGWYRQAPGKERELVAAIDRSGSTYYADSVKGRFTISRDNAKNTVYLQMNSLKPEDTAVYYCAADAVRKDLFDYWGQGTQVTVSS ... low polyreactivity

Then this sequence:
Field polyreactivity (PSR sort gate) (entry QVQLVESGGGLVQAGGSLRLSCAASGTTFYNYAMGWYRQAPGQERELVAAISKTGGSTYYADSVKGRFTISRDNAKNTVYLQMNSLKPEDTAVYYCNAVALYPYTTYHYWGQGTQVTVSS ) reads high polyreactivity

###

# TEST DETAILS: yeast display, Sf9 membrane polyspecificity reagent, FACS + sequencing; frameworks hold sequencing errors
PROPERTY NAME: polyreactivity (PSR sort gate)

QVQLVESGGGLVQAGGSLRLSCAASGSIFGYYSMGWYRQATGKERELVATITWGGGSTYADSVKGRFTISRDNAKNTVYLQMNSLKPEDTAVYYCNAGYRYTSAQVTWEYDYWGQGTQVTVSS ... low polyreactivity
QVQLVESGGGLVQAGGSLRLSCAASGFTLWLNAMGWYRRAPGKERELVAAITTSDDGTYYADSVKGRFTISRDNAKNTVYLQMNSLKPEDTAVYYCAADYYSVLYDYWGQGTQVTVSS ... low polyreactivity

###

# TEST DETAILS: yeast display, Sf9 membrane polyspecificity reagent, FACS + sequencing; frameworks hold sequencing errors
PROPERTY NAME: polyreactivity (PSR sort gate)

QVQLVESGAGLVQAGASLRLSCAASGRIFSRYVMGWYRQAPGKEREFVASITWSGSSTYYADSVKGRFTLSRDNAKNTVYVQMNSLKPEDTAVYYCAALGLLSPSPWGTHIYEYDSWGQGTQVTVSS ... low polyreactivity
QVQLQESGGGLVQAGGSLRLSCAASGNISVTGFMGWYRQAPGKERELVASIGIGGTTYYADSVKGRFSISRDNGKNTVYLQLNSLKPEDSAVYYCAARYLYYAYSYWGQGTQVTVSS ... low polyreactivity
QVQLVESGGGLVQAGGSLRLSCAASGSIFTYNTMGWYRQAPGKERELVATISWSGGRTYYADSVKGRFTISRDNAKNTVYLQMNSLKPEDTAVYYCAAGYYYGYPPRDYWGQGSQVTVSS ... high polyreactivity
LVQLVETGGGLVQAGGSLRLSCAASGSVFYSYAMGWYRQAPGKERELVAAISFSGGSTYYADSVKGRFTISRDNAKNTVYLQMNSLKPEDTAVYYCNTLSADTFDYWGQGTQVTVSS ... low polyreactivity
QVQLVESGGGLVQAGGSLRFSCAASGSTFTVYAMGWYRQAPGQERELVAAITNGGRTYYADSVKGRFTISRDNAKNTVYLQMNSLKPEDTAVYYCAADVYYDDYLYDYWGQGTQVTVSS ... high polyreactivity
QVQLVESGGGLVQAGGSLRLSCAASGSIFWPNSMGWYRQAPGKERELVAAISWGTGSTYYADSVKGRFTISRDNAKNTVYLQMNSLKPEDTAVYYCAADGAYLDPYYDYWGQGTQVTVSS ... low polyreactivity
QVQLVESGGGLVQAGGSLRLSCAASGRTFRYNAMGWSRQAPGKERELVADITKSGGTTYYADSVKGRFTISRDNAKNTVYLQMNSLKPEDTAVYYCNAYRVVHPWEYDYWGQGTQVTVSS ... high polyreactivity
QVQLVESGGGLVQAGGSLRLSCAASGFTFARYTMGWSRQAPGKEREFVAAISWSGGRTYYADSVKGRFTISRDNAKNTVYLQMNSLKPEDTAVYYCAAEYWGVYRGFVSSFDYWGQGTQVTVSS ... high polyreactivity

Field polyreactivity (PSR sort gate) (entry QVQLVESGGGLVQAGGRLRLSCAASGFIIARNAMGWYRQAPGKERELVAASSASGGRTYYADSVKGRFTISRDNAKNTVYLQMNSLKPEDTAVYYCAARRDGRSGSFNYWGQGTQVTVSS ) reads high polyreactivity

Field polyreactivity (PSR sort gate) (entry QVQLVESGGGLVQAGGILRLSCAAYGFTFYSYSMGWYRQAPGKEREFVAAGSTYYADSVKGRFTISRDNAKNTVYLQMNSLKPEDTAVYYCAADPWIYVQSYGFWGQGTQVTVSS ) reads low polyreactivity

Field polyreactivity (PSR sort gate) (entry QVQLVESGGGLVQAGGSLRLSCAASGFTFGWYAMGWDIQAPGKERELLATISWSGSSTYYADSVKGLFTISRDNAKNTVYLQMNSLKPEDTAVYYCNAVYGGFVVLRYDYWGQGTQVTVSS ) reads high polyreactivity

###

# TEST DETAILS: yeast display, Sf9 membrane polyspecificity reagent, FACS + sequencing; frameworks hold sequencing errors
PROPERTY NAME: polyreactivity (PSR sort gate)

QVQLVESVGGLVQAGGSLRLSCAASGINFGFNTMGWYRQAPGKERELVAAINGSDGSTYADSVKGRFTISRDNAKNTVYLQMNSLKPEDTAVYYCAADAYDGEGTYPFEYWGQGTQVTVSS ... low polyreactivity
QVQLVESGGGLVQAGGSLRLSCAASGSIFSVNAMGWYRQAPGKERELVAGITISGGRTYYADSVKGRFTISRDNAKNTVYLEMNSLKPEDTAVYYCAADWVYPPGLKDSVHFGEYDYWGQGTQVTVSS ... low polyreactivity
QVQLVESGGGLVQAGGSLRLSCAASGSIVTSNAMGWYRQAPGKERELVAAITSSSSTNYADSVKGRFTISRDNAKNTVYLQMNSLKPEDTAVYYCAADYTWYYPYWIMDYWGQGTQVTVSS ... low polyreactivity

###

# TEST DETAILS: yeast display, Sf9 membrane polyspecificity reagent, FACS + sequencing; frameworks hold sequencing errors
PROPERTY NAME: polyreactivity (PSR sort gate)

QVQLVESGGGLVQAGGSLRLSCAASGIIFSLYAMGWYRQAPGKERELVAAISASDGSTYYAVSVKGRFTISRDNAKNTVYLQMNSLKPEDTAVYYCAADSRPTQEYDYWGQGTQVTVSS ... low polyreactivity
QVPLVESGGGIDQAGGSLRLSCAASGFIFCTYTMGWYIQAPGNEWELVAAISKSSGSTYYADSVKGRFTISRDNAKKTVYLQMNSLKPEDTAVYYCAAPTRSYGTPPYDYWGQGTQVTVSA ... low polyreactivity

###

# TEST DETAILS: yeast display, Sf9 membrane polyspecificity reagent, FACS + sequencing; frameworks hold sequencing errors
PROPERTY NAME: polyreactivity (PSR sort gate)

QVQLVESGGGLVQAGGSLRLSCAASGNTLHRYVMGWYRPAPGKERELVAVITRGTSTYYADSVKGRFTISRDNAKNTVYLQMNSLKPEDTAVYYCAARYTFPYSRYDYWGQGTQVTVSS ... low polyreactivity
QVQLVESGGGLVQAGGSLRLSCAASGFTFWRYGMGWYRQAPGKERELVASITSGGGTNYADSVKGRFTISRDNAKNTVYFQMNSLKPEDTAVYYCAATYPYSWVYSGYYYWGQGTQVTVSS ... low polyreactivity

###

# TEST DETAILS: yeast display, Sf9 membrane polyspecificity reagent, FACS + sequencing; frameworks hold sequencing errors
PROPERTY NAME: polyreactivity (PSR sort gate)

The examples below pair each entry with its known result.
QVQLVESGGGLVQAGGSLRLSCAASGINFSEYAMGWSRQAPGKERELVAVITSGGSTYYADSVKGRFTISRDNAKNTVYLQMNSLKPEDTAVYYCAARTAYASRYVNVPYYYWGQGTQVTVSS ... high polyreactivity
QVQLVESGGGLVQPGGSLRLTCAAYGFIFGYNSMGWYSQAPGKERELVAAISSGGSTYYADSVNGLFTISRDNAKNTVYLQMNSVKPDDTAVYYCAVELGYPIQSDALWWDFEYWGQGTQVTVSS ... low polyreactivity
QVQLVDSGGGLVQAGGSLRLSCAASGITFRYYAMGWYRQAPGKERELVAAITRGGRTNYADSVKGRFTISRDNAKNTVYLQKNSLKPEETAVYYCATGRDSNFGNSYYYWGQGTQVTVSS ... high polyreactivity
QVQLVESGGGLVQAGGSLRLSCAASGRIITYYAMGWYRQAPGKERELVAAITASGSRTYYADSVKGRFTISRDTAKNTVYLQMNSLKPEDTAVYYCAALSRLSPLSGSYYWGQGTQVTVSS ... high polyreactivity
QVQLVESGGGLVQAGGSLRLSCAASGLIFRPYDMGWYRQAPGKERELVAAISNGDSTNYADSVKGRFTISRDNAKNTVYLQMNSLKPEDTAVYYCAAEDYYIYREPYDYWGQGTQVTVSS ... low polyreactivity

Field polyreactivity (PSR sort gate) (entry QVQLEESGGGLVQAGGSLRLSCAASGRILYGYAKGSYRQAPGKERELVASITWSGGSTYADSVKGRFTFSRDNAKNTVYLQMNSLKTEDTSVYYCSTRRGQKWQWLTYGYWGQGTQVTVSS ) reads low polyreactivity

Field polyreactivity (PSR sort gate) (entry QVQLVESGGGLVQAGGSLRLSCAASGYTFYVYTMGWYRQAPGKERELVAAISGSGTSTYYADSVKGRFTISRDNAKNTVYLQMNSLKPEDTAVYYCAAEDYSSDVYSYDYWGQGTQVTVSS ) reads low polyreactivity

Field polyreactivity (PSR sort gate) (entry QVQHVESGGGLVQAGGSLRLSCAASGSIFVYYAMGGYRQAPGKERELVAAISRSGGNTYYADSVKGRFTISRDNAKNTVYLQMNSLKPEDTAVYYCAAQPYVEGTKRYYWGQGTQVTVSS ) reads high polyreactivity

Field polyreactivity (PSR sort gate) (entry QVQLVESGGGLVQAGGSLRLSCAASGIIFGHYDMGWYRQAPGKERELVAAITFTGDSTYYADSVKGRFTISRDNAKNTVYLQMNSLKPEDTAVYYCAAETPVPWGSWGYDYWGQGTQVTVSS ) reads low polyreactivity

Field polyreactivity (PSR sort gate) (entry QVQLVESGGGLVQAGGSLRLSCAASGRIFCGYMGWYRQAPGKEREFVAAISVRGGGTYYADSVKGRFTISRDNAKNTVYLQMNSLKPEDTAVDYCNTRGGWPYDYWGQGTQVTVSS ) reads low polyreactivity

Field polyreactivity (PSR sort gate) (entry QVQLVESGGGLVQAGGSLRLSCAASGYTFSPNDMGWYRQAPGKERELVAAITSSVGSTYYADSVKGRFTISRDNAKNTVYLQLNSLKPEDTAVYYCNKQDSSYYISGGGDYDYWGQGTQVTVSS ) reads low polyreactivity
